Reported values of microsomal CLint for individual entries
Test: in vitro
Conditions: human, liver microsomes
measurement.label: microsomal CLint

1. CC(=O)N1N=C(c2ccc(Br)cc2)CC1c1ccc(C)cc1 (stereo not given): 41.7 µL/min/mg
2. CCC[C@H](CO)Nc1nc(S[C@@H](C)c2cccc(C#N)c2)nc2[nH]c(=O)sc12: 52.5 µL/min/mg
3. C[C@H](CO)Nc1nc(SCc2cccc(F)c2F)nc2nc(NC3CC3)sc12: 66 µL/min/mg
4. CCOc1ccc(-c2ccc(Cn3c(CC(C)(C)C(=O)O)c(SC(C)(C)C)c4cc(OCc5ccc(C)cn5)ccc43)cc2)cn1: 9.77 µL/min/mg
5. O=C(Nc1nc2ccccc2[nH]1)c1ccccc1: 64 µL/min/mg
6. COc1cc(C(=O)OCCCCNC(=N)N)cc(OC)c1O: < 3 µL/min/mg
7. COc1ccccc1Oc1c(NS(=O)(=O)c2ccc(C(C)(C)C)cc2)nc(-c2ncccn2)nc1OCCO: 15.1 µL/min/mg
8. Cc1ccc2c(NC[C@](O)(CC(C)(C)c3cc(F)cc4c3OCC4)C(F)(F)F)cccc2n1: > 150 µL/min/mg
9. CCO[C@@H]1OC(=O)C[C@@H]1NC(=O)[C@@H]1CCCN2C(=O)CC[C@H](NC(=O)c3nccc4ccccc34)C(=O)N12: < 3 µL/min/mg
10. CCCC1CCCCC(N)=N1 (stereo not given): < 3 µL/min/mg
11. CCc1nc2c(N)nc3ccccc3c2n1CC(C)C: < 3 µL/min/mg
12. O=C(Nc1ccc(S(=O)(=O)N2CCOCC2)cc1)c1cc(Cl)ccc1NS(=O)(=O)c1ccc(Cl)s1: < 3 µL/min/mg
13. CC/C(=C(/c1ccc(O)cc1)c1ccc(/C=C/C(=O)O)cc1)c1ccccc1: 33.9 µL/min/mg
14. O=C(NCC12CC3CC(CC(C3)C1)C2)c1cc(CN2C[C@@H]3C[C@H]2CN3)ccc1Cl: 13 µL/min/mg
15. Oc1nc2c(O)ccc(CCNCCCSCCOCCc3cccc4ccccc34)c2s1: 36 µL/min/mg
16. O=C(c1ccc(OCCN2CCCCC2)cc1)c1c(-c2ccc(O)cc2)sc2cc(O)ccc12: 21 µL/min/mg
17. COc1ccccc1C(C#N)NC(=O)[C@@H]1CCCC[C@H]1C(=O)N1CCN(Cc2ccc(F)cc2)CC1 (stereo not given in full): 127 µL/min/mg
18. N#Cc1ccc(Cl)cc1O[C@H](CCN)c1ccccc1: 4 µL/min/mg
19. CCS(=O)(=O)c1ccc(-c2cc(Cl)ccc2OCC(=O)O)cc1: < 3 µL/min/mg
20. Nc1nnc(-c2ccccc2)s1: 3 µL/min/mg

###

Assay: in vitro
Details: hepatocytes
measurement.label: log10 hepatocyte CLint (log10 of the value in µL/min/1e6 cells)

1) CC1(C)S[C@@H]2[C@H](NC(=O)C(C(=O)O)c3ccccc3)C(=O)N2[C@H]1C(=O)O (some centres undefined) [CARBENICILLIN]: 0.53
2) CN(CC(=O)N(Cc1ccc(C2CCCCC2)cc1)c1ccc(C(=O)O)c(O)c1)S(=O)(=O)c1c(F)c(F)c(F)c(F)c1F: 1.87
3) O=c1[nH]c2c(O)ccc([C@@H](O)CNCCOc3cccc(CNCCc4ccccc4F)c3)c2s1: 1.36
4) COc1ccc(COc2nc(Br)cnc2NS(=O)(=O)c2ccc(C)cc2)cc1OCCN(C)C: 1.49
5) COc1cccc2c1c(NS(=O)(=O)c1ccc(Cl)s1)nn2Cc1cccc(CNC(=O)[C@H]2COCCN2)c1: 1.45

src = ChEMBL document CHEMBL3301361
